pIC50: −log10 of the molar value.
For reference, pIC50 measured on catalytic domain of human Bub1 (amino acids 704-1085) (Homo sapiens, UniProt O43683):
Property: pIC50

Molecule	Property	Endpoint Value
CCOc1cc(F)c(Cn2nc(-c3ncc(OCCCS(C)(=N)=O)c(Nc4ccncc4)n3)c(C)c2C2CC2)c(F)c1 (racemic) [Example 2-2-1]	pIC50	8.08
CCOc1cc(F)c(Cn2nc(-c3ncc(OCCCS(C)(=N)=O)c(Nc4ccncc4)n3)c(C)c2C2CC2)c(F)c1 (single isomer, unassigned; (+)) [Example 2-2-3]	pIC50	8.24
CCOc1cc(F)c(Cn2nc(-c3ncc(OCCCS(C)(=N)=O)c(Nc4ccncc4)n3)c(C)c2C2CC2)c(F)c1 (single isomer, unassigned; (-)) [Example 2-2-2]	pIC50	8.02
